Hello, the source for this data is ChEMBL document CHEMBL4513216, in case you need it.

Listing of entries alongside the reported cytotoxicity at 10 µM.
Assay: Toxicity liver stage against HepG2, at 10uM
Assay type: cell-based
Set-up: test concentration 10 uM, cell line HepG2-A16-CD81EGFP
Conditions: human, HepG2-A16-CD81EGFP cells; read-out: INHIBITION

{"columns": ["Compound", "cytotoxicity at 10 µM, %"],
 "data": [
  ["Cc1nc(C2CCCN2C(=O)c2csc3c2CCCC3)no1 (configuration not stated)", -10.3],
  ["COc1ccc(F)cc1C(C)NC(=O)NCCCn1cncn1 (configuration not stated)", -17.8],
  ["O=C(NCC(=O)N1CCCCC1)c1sccc1C1CC1", -136],
  ["O=C(NCCOc1cccc(Cl)c1Cl)N1CCC2(CC1)OCCO2", -3.36],
  ["CN(C)C(=O)COCC1CN(S(C)(=O)=O)Cc2ncn(C)c21 (configuration not stated)", 4.39],
  ["CC(C)N(Cc1ccccc1)Cc1nnsc1Cl", -9.44],
  ["O=C(CCc1ccc(Cl)cc1)N[C@@H]1CC[C@@H](O)[C@@H]1O", 3.85],
  ["CCc1nc(C)c([C@H]2CN(C)C[C@@H]2C(=O)Nc2ccc(OC)cc2)[nH]1", -6.66],
  ["c1cncc(-c2ccc3c(c2)CCC32CCNCC2)c1", -10.3],
  ["CCc1nc(CCNC(=O)Nc2cc(C(N)=O)sc2C)cs1", 24.6],
  ["Cc1ncsc1CCC(=O)NC1CCN(Cc2cccs2)CC1", -3.09],
  ["COc1ncc(CN2CCCC2c2[nH]ncc2C(=O)N(C)C)cn1 (configuration not stated)", -0.116]
]}
